The origin of these recorded values is the supplement of paper PMC9112550.

Tested on: Escherichia coli TOP10;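 further: peptides expressed intracellularly from a pBAD plasmid library in pooled LB shake-flask culture, induced with 0.3% L-arabinose, DNA abundance read by NGS, three biological replicates, DESeq2 with apeglm shrinkage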
Experiment: shrunken log2 fold change of peptide-encoding DNA abundance (4.5 h post-induction vs induction); higher = less antimicrobial activity (less host growth inhibition)
Settings: time post-induction: 4.5 h; library: site-saturation at positions 5, 18, 19, 20
Decide by shrunken log2 fold change: equal to or exceeding -0.1 means 1.0, less means 0.0.

1. RRIRTRPPRLPRPRPRPNCKPRP    0.0
2. RRIRPRPPRLPRPRPRPRGIPRP    0.0
3. RRIRQRPPRLPRPRPRPMHLPRP    0.0
4. RRIRNRPPRLPRPRPRPDSWPRP    0.0
5. RRIRRRPPRLPRPRPRPPQRPRP    1.0
6. RRIRFRPPRLPRPRPRPRKPPRP    1.0
7. RRIRIRPPRLPRPRPRPWQLPRP    1.0
8. RRIRGRPPRLPRPRPRPLGDPRP    1.0
9. RRIRNRPPRLPRPRPRPSYVPRP    1.0
10. RRIRNRPPRLPRPRPRPGRAPRP    1.0
11. RRIRDRPPRLPRPRPRPLMSPRP    1.0
12. RRIRGRPPRLPRPRPRPGYFPRP    1.0
13. RRIRSRPPRLPRPRPRPGSYPRP    1.0
14. RRIRMRPPRLPRPRPRPYPSPRP    1.0
15. RRIRCRPPRLPRPRPRPHKTPRP    1.0
